biological target: Sentrin-specific protease 1 (Homo sapiens, UniProt Q9P0U3); assay: Inhibition of recombinant human SNEP1 (419 to 644 residues) expressed in Escherichia coli (DE3) cells using RanGAP-SUMO2 substrate preincubated for 10 mins followed by substrate addition and measured after 25 min by Coomassie blue staining based SDS-PAGE analysis
Sequence (Q9P0U3 whole entry, the tested form may be a part): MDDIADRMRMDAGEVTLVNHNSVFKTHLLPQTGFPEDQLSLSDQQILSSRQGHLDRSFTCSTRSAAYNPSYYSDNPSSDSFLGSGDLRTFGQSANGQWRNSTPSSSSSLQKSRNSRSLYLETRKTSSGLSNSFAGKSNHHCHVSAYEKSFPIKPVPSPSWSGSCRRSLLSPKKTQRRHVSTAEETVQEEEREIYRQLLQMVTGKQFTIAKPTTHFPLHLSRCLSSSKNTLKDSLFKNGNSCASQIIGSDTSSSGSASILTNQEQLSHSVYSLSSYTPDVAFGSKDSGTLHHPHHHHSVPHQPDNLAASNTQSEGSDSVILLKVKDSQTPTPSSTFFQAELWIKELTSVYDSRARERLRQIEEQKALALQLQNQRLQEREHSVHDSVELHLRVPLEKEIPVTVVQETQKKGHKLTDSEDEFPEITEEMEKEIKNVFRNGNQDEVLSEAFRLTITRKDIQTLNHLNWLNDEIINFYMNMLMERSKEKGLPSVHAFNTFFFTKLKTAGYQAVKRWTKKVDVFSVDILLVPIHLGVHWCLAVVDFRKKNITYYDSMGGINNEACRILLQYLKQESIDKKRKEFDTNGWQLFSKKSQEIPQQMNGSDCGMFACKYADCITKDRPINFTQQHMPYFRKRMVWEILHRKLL

{"MOLECULE SMILES": "CC(=O)Nc1cccc(CNC(=O)c2sc3ccccc3c2OCc2ccccc2)c1", "UNIT SYMBOL": "µM", "IC50": 25.4}

----------
experiment: Inhibition of recombinant human SNEP1 K455A mutant (419 to 644 residues) expressed in Escherichia coli (DE3) cells using RanGAP-SUMO2 substrate preincubated for 10 mins followed by substrate addition and measured after 25 min by Coomassie blue staining based SDS-PAGE analysis

{"MOLECULE SMILES": "CCOC(=O)CNc1ccc2sc(C(=O)NCc3cccc(NC(=O)c4cccs4)c3)c(OCc3ccccc3)c2c1", "IC50": "3.42 µM"}

Where do these numbers come from? They come from ChEMBL document CHEMBL4765398.
